# Test system: OVCAR-8 ovarian
# test details: NCI tumour cell line growth inhibition, 48 h
TGI values for the molecules below.
Numeric answer only, unit µM assumed.

Exam item: Which TGI value is on record for CCOP(=O)(OCC)C(NC(c1ccccc1)c1ccccc1)c1ccsc1 (stereo not given) ?
Marked response: 57

Exam item: Consider the molecule `CCN(CC)CCCNc1nccc2c(C)c3[nH]c4ccncc4c(=O)c3cc12` and give its measured TGI.
Marked response: 2.36

Exam item: Report TGI for COc1cccc(C2c3cc4c(cc3OC(NNC(N)=O)C2C)OCO4)c1OC (stereo not given) please.
Marked response: 17.9

Exam item: For the molecule `CCc1nc(N)nc(N)c1-c1ccc(N(C)Cc2ccccc2)c([N+](=O)[O-])c1` , what TGI is on record?
Marked response: 30

As a next step, examine the molecule that follows.
Exam item: Would you mind telling me what TGI value was observed for `CCCCCCCCCCCCCP(=O)(OC)OC` ?
Marked response: 31.9

====

Reported TGI values for the following compounds.
# Tested on: EKVX NSCLC
# test details: NCI tumour cell line growth inhibition, 48 h

Recorded TGI, per entry:
Exam item: Which measured TGI value corresponds to CCN(CC)CCOc1ccc(NC(=O)C(C(C)C)N2C(=O)/C(=C/c3ccc(Br)cc3)SC2=S)cc1 (stereo unspecified) ?
Marked response: 18.8 µM

Exam item: For the compound shown here, `Cc1nc2c(n1Cc1ccc(F)cc1)C(=O)c1ccccc1C2=O` , give the reported TGI.
Marked response: > 100 µM

Further cases:
Exam item: What value of TGI has been recorded for this entry: C=C1CCCC2OC(OC)CCC12 (stereo unspecified)
Marked response: > 100 µM

Exam item: Value lookup for TGI; key = `COc1ccc(C(=O)/C=C/c2c(C(F)(F)F)nc3ccccn23)cc1OC`
Marked response: > 100 µM

====

# System: MDA-MB-435
# test details: NCI tumour cell line growth inhibition, 48 h
# if value of TGI reaches 40 µM, tag 1; if it stays below, tag 0

Check out these entries, answers already filled in.
Exam item: Does the compound `COc1ccc(C(=O)/C=C/c2c(C(F)(F)F)nc3ccccn23)cc1OC` have recorded TGI that is 40 µM or more?
Marked response: 1

Exam item: // inclusive: TGI at least 40 µM? input: `Cn1c2ccccc2c2c(=O)n(CCCC(=O)NCCc3cnc[nH]3)c3c(-c4ccccc4)nnn3c21`
Marked response: 0

Exam item: Can `CCc1nc(N)nc(N)c1-c1ccc(N(C)Cc2ccccc2)c([N+](=O)[O-])c1` be said to have TGI at or above 40 µM?
Marked response: 0

Exam item: Record `CC(C)(C)c1cc(OCc2n[nH]c(=S)n2N)c(Cl)cc1OCc1n[nH]c(=S)n1N` ; criterion: TGI no lower than 40 µM. Met?
Marked response: 1

Exam item: # check: TGI of `O=C(/C=C/c1ccc(Cl)cc1)c1nc2ccccc2[nH]1` is greater than or equal to 40 µM
Marked response: 0

New cases:
Exam item: Confirm if TGI reported for the compound `COC(=O)CCc1cc(OC)c2oc(-c3ccc(OC)c(OC)c3)c(CO)c2c1` is 40 µM or above.
Marked response: 1

Exam item: Reported TGI reaches at least 40 µM for `CCCCCCc1cc2cc(-c3cn4ccccc4n3)c(=O)oc2cc1O` ?
Marked response: 0
